The entries below come with measured Vd values attached.
test_name: Volume of distribution at steady state in Sprague-Dawley rat at 1 mg/kg, iv measured at 0.05 to 24 hrs by HPLC coupled LC-MS/MS analysis
Format: ADME, organism-based
condition_details: in vivo, read-out: Vdss
Give a bare numeral; the unit L/kg is implied.

Please give the measured Vd for this compound: `COCCN1CCN(CCNc2nonc2/C(=N/O)Nc2ccc(F)c(Br)c2)S1(=O)=O` 9.84

May I ask what Vd has been recorded for `O=S1(=O)NCCN1CCNc1nonc1/C(=N/O)Nc1ccc(F)c(Br)c1` ? 4.29

May I ask what Vd has been recorded for `O=C1OCCN1CCNc1nonc1/C(=N/O)Nc1ccc(F)c(Br)c1` ? 2.56

Could you tell me which Vd is on file for `O=S1(=O)CCCN1CCNc1nonc1/C(=N/O)Nc1ccc(F)c(Br)c1` ? 3.02

These entries and their values trace back to ChEMBL document CHEMBL4351002.
